Ref: ChEMBL document CHEMBL3120051

Measured viability at 72 h, 20 µM values are reported for all entries that follow.
PROTOCOL_NOTES: Cytotoxicity against human THP1 cells assessed as cell viability at 20 uM after 72 hrs by trypan blue dye exclusion assay
Assay type: cell-based
EXPERIMENTAL_CONDITIONS: THP-1 cells, read-out: Activity

Here is how some compounds turned out for viability at 72 h, 20 µM.
C/C(=N\OCC(=O)Nc1c(F)cccc1F)C1=C(O)c2ccccc2S(=O)(=O)N1C : 92.2%
COc1ccc(NC(=O)CO/N=C(\C)C2=C(O)c3ccccc3S(=O)(=O)N2C)cc1 : 97.5%
CCOC1=C(/C(C)=N/OCC(=O)Nc2ccccc2)N(C)S(=O)(=O)c2ccccc21 : 93%
C/C(=N\OCC(=O)Nc1ccc(F)c(Cl)c1)C1=C(O)c2ccccc2S(=O)(=O)N1C : 95.1%

Enquiry: Fill in the blank: the reported viability at 72 h, 20 µM of `CCOC1=C(/C(C)=N/OCC(=O)Nc2ccc(F)c(Cl)c2)N(C)S(=O)(=O)c2ccccc21` is ____.
Return: 97.5%
